Parameter Measured: Ki

Return Ki measured with Glycine amidinotransferase, mitochondrial (Rattus norvegicus, UniProt P50442) given this compound: c1cc2c(c(N3CCNCC3)c1)OCCO2 > 10 µM

---

Target System: Kappa-type opioid receptor (Rattus norvegicus, UniProt P34975)
Sequence (P34975 whole entry): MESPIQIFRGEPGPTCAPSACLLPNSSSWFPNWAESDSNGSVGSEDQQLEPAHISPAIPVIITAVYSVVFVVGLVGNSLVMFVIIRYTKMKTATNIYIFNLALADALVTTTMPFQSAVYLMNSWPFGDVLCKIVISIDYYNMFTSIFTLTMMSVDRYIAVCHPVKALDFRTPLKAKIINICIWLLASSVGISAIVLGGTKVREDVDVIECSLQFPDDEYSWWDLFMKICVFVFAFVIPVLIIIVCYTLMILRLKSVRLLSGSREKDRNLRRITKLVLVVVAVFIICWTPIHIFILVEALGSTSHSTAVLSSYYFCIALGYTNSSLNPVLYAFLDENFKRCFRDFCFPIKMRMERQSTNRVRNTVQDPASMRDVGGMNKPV
Parameter Measured: Ki

Sample c1cc2c(c(N3CCNCC3)c1)OCCO2 — what was its Ki? > 10 µM

---

Parameter Measured: Ki

What reported Ki corresponds to c1cc2c(c(N3CCNCC3)c1)OCCO2 on Muscarinic acetylcholine receptor M1 (Rattus norvegicus)? > 10 µM

---

Target System: Muscarinic acetylcholine receptor M2 (Rattus norvegicus)
Sequence (P10980 whole entry): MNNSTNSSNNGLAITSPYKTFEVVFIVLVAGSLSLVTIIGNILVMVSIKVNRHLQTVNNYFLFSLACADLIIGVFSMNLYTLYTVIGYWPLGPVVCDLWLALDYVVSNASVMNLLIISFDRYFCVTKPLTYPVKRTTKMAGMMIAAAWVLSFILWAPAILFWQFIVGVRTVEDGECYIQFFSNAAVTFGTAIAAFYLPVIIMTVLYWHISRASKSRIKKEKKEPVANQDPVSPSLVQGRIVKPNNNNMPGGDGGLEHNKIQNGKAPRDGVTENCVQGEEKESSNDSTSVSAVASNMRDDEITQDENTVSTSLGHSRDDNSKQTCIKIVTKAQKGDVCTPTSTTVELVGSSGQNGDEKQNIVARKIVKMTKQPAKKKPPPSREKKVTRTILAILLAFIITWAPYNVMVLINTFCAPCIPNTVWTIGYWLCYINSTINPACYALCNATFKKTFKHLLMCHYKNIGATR
pKi: −log10 of the molar value.
Parameter Measured: pKi

Need pKi, item c1cc2c(c(N3CCNCC3)c1)OCCO2 < 5.00

---

Parameter Measured: Ki

Item: c1cc2c(c(N3CCNCC3)c1)OCCO2 Test system: Mu-type opioid receptor (Rattus norvegicus, UniProt P33535) Read-out: Ki Value: ? > 10 µM

---

Target System: Gamma-aminobutyric acid receptor subunit alpha-1 (Rattus norvegicus)
Sequence (P62813 whole entry): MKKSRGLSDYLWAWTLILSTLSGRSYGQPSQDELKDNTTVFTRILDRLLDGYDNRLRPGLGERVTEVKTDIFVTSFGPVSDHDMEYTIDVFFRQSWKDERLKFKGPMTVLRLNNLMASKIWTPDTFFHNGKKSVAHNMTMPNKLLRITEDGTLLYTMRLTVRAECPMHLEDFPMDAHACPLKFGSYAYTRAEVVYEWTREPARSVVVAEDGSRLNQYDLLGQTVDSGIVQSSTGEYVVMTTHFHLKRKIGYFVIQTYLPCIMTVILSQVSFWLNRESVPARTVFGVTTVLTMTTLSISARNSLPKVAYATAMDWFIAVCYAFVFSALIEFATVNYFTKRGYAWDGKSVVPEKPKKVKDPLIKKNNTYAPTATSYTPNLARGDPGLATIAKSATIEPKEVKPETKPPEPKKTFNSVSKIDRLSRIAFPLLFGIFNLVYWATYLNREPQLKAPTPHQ
Parameter Measured: Ki

Recorded Ki of c1cc2c(c(N3CCNCC3)c1)OCCO2 , please. > 10 µM

---

Target System: Gastrin/cholecystokinin type B receptor (Rattus norvegicus)
Sequence (P30553 whole entry): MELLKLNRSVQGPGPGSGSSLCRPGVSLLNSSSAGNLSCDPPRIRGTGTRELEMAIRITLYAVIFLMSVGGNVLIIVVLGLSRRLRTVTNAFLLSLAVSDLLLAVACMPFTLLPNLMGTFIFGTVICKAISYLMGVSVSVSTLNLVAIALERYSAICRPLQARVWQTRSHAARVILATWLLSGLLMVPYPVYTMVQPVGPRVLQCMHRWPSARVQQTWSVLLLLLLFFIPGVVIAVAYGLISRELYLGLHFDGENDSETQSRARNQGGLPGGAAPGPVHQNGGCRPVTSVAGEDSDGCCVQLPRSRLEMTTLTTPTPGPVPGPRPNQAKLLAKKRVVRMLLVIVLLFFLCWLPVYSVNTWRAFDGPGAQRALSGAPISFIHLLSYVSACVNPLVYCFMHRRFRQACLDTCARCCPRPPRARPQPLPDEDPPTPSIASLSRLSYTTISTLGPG
pKi: −log10 of the molar value.
Parameter Measured: pKi

What does the record list as pKi for c1cc2c(c(N3CCNCC3)c1)OCCO2 ? < 5.00

---

Parameter Measured: pKi
Recall that pKi is obtained by taking minus log10 of the concentration measured in molar.

Test system 5-hydroxytryptamine receptor 2A (Rattus norvegicus, UniProt P14842); read-out pKi; what value for c1cc2c(c(N3CCNCC3)c1)OCCO2 ? 5.77

All values here come from BindingDB's records for doi:10.1515/dmdi.1990.8.1-2.85.
